Parameter Kd: see the listing below.
# target_of_assay: WDR5 (Homo sapiens (Human))
# method_summary: Surface Plasmon Resonance (SPR) assay, KD and residence time
# Type: binding
# cond: surface plasmon resonance (SPR); read-out: WDR5 binding affinity (KD)
# Procedure: (i) Surface Plasmon Resonance (SPR) Assay The lifetime of a drug on its target is determined by two rate constants: the association rate constant (kon) and the dissociation rate constant (koff). […] Drug-target residence time is defined as the reciprocal of koff (τ=1/koff), making the residence time a parameter that is easily measured by routine in vitro assay methods.
Express your answer in nM, writing the number without its unit.

{"molecule": "C[C@@H]1CN(c2ccc(-c3cc(NC(=O)c4cn(C)c(=O)cc4C(F)(F)F)c(N4C[C@@H](C)N(C)[C@@H](C)C4)cc3F)cn2)C[C@H](C)O1", "target_of_assay": "WDR5 (Homo sapiens (Human))", "unit_name": "nM", "quantitative_readout": 2.43}
{"molecule": "CC1CN(c2cc(F)c(C3=CCN(C(=O)OC4CC(F)(F)C4)CC3)cc2NC(=O)c2c[nH]c(=O)cc2C(F)F)CCN1C (stereo in doubt)", "target_of_assay": "WDR5 (Homo sapiens (Human))", "unit_name": "nM", "quantitative_readout": 1.03}
{"molecule": "C[C@@H]1CN(c2ccc(-c3cc(NC(=O)c4cn(C)c(=O)cc4C(F)(F)F)c(N4CCN(C)[C@@H](C)C4)cc3F)cn2)C[C@H](C)O1 (racemic)", "target_of_assay": "WDR5 (Homo sapiens (Human))", "unit_name": "nM", "quantitative_readout": 1.96}
{"molecule": "C[C@@H]1CN(c2cc(F)c(C3=CCN(c4ncc(CN5CCN(C)CC5)cn4)CC3)cc2NC(=O)c2c[nH]c(=O)cc2C(F)(F)F)C[C@H](C)N1C", "target_of_assay": "WDR5 (Homo sapiens (Human))", "unit_name": "nM", "quantitative_readout": 0.231}
{"molecule": "C[C@@H]1CN(c2nccc(-c3cc(NC(=O)c4c[nH]c(=O)cc4C(F)F)c(N4C[C@@H](C)N(C)[C@@H](C)C4)cc3F)n2)C[C@H](C)O1", "target_of_assay": "WDR5 (Homo sapiens (Human))", "unit_name": "nM", "quantitative_readout": 2.76}

Okay, now this molecule:
Fill in the blank: the reported Kd of C[C@@H]1CN(c2cc(F)c(C3=CCN(c4ncc(F)cn4)C3)cc2NC(=O)c2c[nH]c(=O)cc2C(F)(F)F)C[C@H](C)N1C is ____.
2.88

----------
# target_of_assay: WDR5 (Homo sapiens (Human))
# method_summary: Surface Plasmon Resonance (SPR) assay, KD and residence time
# Type: binding
# cond: surface plasmon resonance (SPR); read-out: WDR5 binding affinity (KD)
Parameter Kd: see the listing below.
Express your answer in nM, writing the number without its unit.

Observe how each entry below is paired with its result.
{"compound": "C[C@@H]1CN(c2cc(F)c(-c3cnc(NS(C)(=O)=O)nc3)cc2NC(=O)c2c[nH]c(=O)cc2C(F)(F)F)C[C@H](C)N1C [Example 582]", "unit_name": "nM", "Kd": 5.78}
{"compound": "CC1CN(c2cc(F)c(-c3ccc(F)c(C(N)=O)c3)cc2NC(=O)c2c[nH]c(=O)cc2C(F)F)CCN1C (stereo in doubt) [Example 596]", "unit_name": "nM", "Kd": 4.03}

Okay, now this compound:
Fill in the blank: the reported Kd of CC1CN(c2cc(F)c(-c3csc(N4CCOCC4)n3)cc2NC(=O)c2cn(C)c(=O)cc2C(F)F)CCN1C (stereo in doubt) [Example 620] is ____.
4.19

----------
# target_of_assay: WDR5 (Homo sapiens (Human), UniProt P61964)
# method_summary: Surface Plasmon Resonance (SPR) assay, KD and residence time
# Assay type: binding
# cond: surface plasmon resonance (SPR) assay; read-out: WDR5 binding affinity (KD)
assay_metric: log10(Kd) (log10 of the value in nM)
// stored as log10 of Kd expressed in nM

Observe how each entry below is paired with its result.
{"compound": "C[C@@H]1CN(c2cc(F)c(-c3cnc(N4CCOCC4)nc3)cc2NC(=O)c2ccc(F)c(Cl)c2F)C[C@H](C)N1C", "log10(Kd)": 1.14}
{"compound": "CCOC(=O)N1CC=C(c2cc(NC(=O)c3c[nH]c(=O)cc3C(F)(F)F)c(N3C[C@@H](C)N(C)[C@@H](C)C3)cc2F)CC1", "log10(Kd)": 0.52}
{"compound": "C[C@@H]1CN(c2cc(F)c(-c3cnc(N4CC(C)(C)OC(C)(C)C4)nc3)cc2NC(=O)c2c[nH]c(=O)cc2C(F)(F)F)C[C@H](C)N1C", "log10(Kd)": -0.14}

Fill in the blank: the reported log10(Kd) of CCN(CC)c1ncc(-c2cc(NC(=O)c3c[nH]c(=O)cc3C(F)(F)F)c(N3C[C@@H](C)N(C)[C@@H](C)C3)cc2F)cn1 is ____.
0.35

Quick one: C[C@@H]1CN(c2cc(F)c(-c3ccc(N4CCCC4)nc3)cc2NC(=O)c2c[nH]c(=O)cc2C(F)(F)F)C[C@H](C)N1C
0.21

Quick one: C[C@@H]1CN(c2cc(F)c(-c3cnc(N4CCOC[C@H]4C)nc3)cc2NC(=O)c2c[nH]c(=O)cc2C(F)(F)F)CCN1C (stereo in doubt)
0.06

Quick one: C[C@@H]1CN(c2cc(F)c(C3=CCN(Cc4ccsc4)CC3)cc2NC(=O)c2c[nH]c(=O)cc2C(F)(F)F)C[C@H](C)N1C
0.68

Quick one: COc1cccc(C(=O)Nc2cc(-c3cnc(N4CCOCC4)nc3)c(F)cc2N2C[C@@H](C)N(C)[C@@H](C)C2)c1F
3.24

----------
# target_of_assay: UniProtKB P61964
# method_summary: Surface Plasmon Resonance (SPR) assay, KD and residence time
# Type: binding
# cond: surface plasmon resonance (SPR); read-out: WDR5 binding affinity (KD)
assay_metric: Kd (nM)
Express your answer in nM, writing the number without its unit.

Observe how each entry below is paired with its result.
{"compound": "COc1cc(N2CC=C(c3cc(NC(=O)c4c[nH]c(=O)cc4C(F)F)c(N4C[C@@H](C)N(C)[C@@H](C)C4)cc3F)CC2)ncn1", "assay_metric": "Kd", "quantitative_readout": 1.59}
{"compound": "C[C@@H]1CN(c2cc(F)c(C3=CCCN(c4ccnc(C#N)n4)C3)cc2NC(=O)c2c[nH]c(=O)cc2C(F)(F)F)C[C@H](C)N1C", "assay_metric": "Kd", "quantitative_readout": 1.73}
{"compound": "CC1CN(c2cc(F)c(-c3cnc(N4CCOC(C)(C)C4)nc3)cc2NC(=O)c2ccc(F)cc2C(F)(F)F)CCN1C (stereo in doubt)", "assay_metric": "Kd", "quantitative_readout": 3.78}
{"compound": "C[C@@H]1CN(c2cc(F)c(C3=CCCN(C(=O)OC4CC(F)(F)C4)CC3)cc2NC(=O)c2c[nH]c(=O)cc2C(F)F)C[C@H](C)N1C", "assay_metric": "Kd", "quantitative_readout": 7.99}
{"compound": "CC1CN(c2ncc(-c3cc(NC(=O)c4c[nH]c(=O)cc4C(F)F)c(N4C[C@@H](C)N(C)[C@@H](C)C4)cc3F)cn2)CCO1 (stereo in doubt)", "assay_metric": "Kd", "quantitative_readout": 0.68}

Fill in the blank: the reported Kd of COc1cnc(N2CC=C(c3cc(NC(=O)c4c[nH]c(=O)cc4C(F)(F)F)c(N4C[C@@H](C)N(C)[C@@H](C)C4)cc3F)C2)nc1 is ____.
0.721

Quick one: Cc1cc(C(=O)Nc2cc(-c3cnc(N4CCOC(C)C4)nc3)c(F)cc2N2C[C@@H](C)N(C)[C@@H](C)C2)cc(C)c1F (stereo in doubt)
1.55

Quick one: C[C@@H]1CN(c2cc(F)c(-c3ccnc(S(C)(=O)=O)n3)cc2NC(=O)c2c[nH]c(=O)cc2C(F)(F)F)C[C@H](C)N1C
4.58

Quick one: C[C@@H]1CN(c2cc(F)c(-c3csc(CN4CCOCC4)n3)cc2NC(=O)c2c[nH]c(=O)cc2C(F)(F)F)C[C@H](C)N1C
2.59

Quick one: C[C@@H]1CN(c2cc(F)c(-c3ccc(F)c(C(N)=O)c3)cc2NC(=O)c2c[nH]c(=O)cc2C(F)(F)F)C[C@H](C)N1C
2.5

----------
# target_of_assay: WDR5 (Homo sapiens (Human))
# method_summary: Surface Plasmon Resonance (SPR) assay, KD and residence time
# Assay type: binding
# cond: surface plasmon resonance (SPR) assay; read-out: WDR5 binding affinity (KD)
# Procedure: (i) Surface Plasmon Resonance (SPR) Assay The lifetime of a drug on its target is determined by two rate constants: the association rate constant (kon) and the dissociation rate constant (koff). […] Drug-target residence time is defined as the reciprocal of koff (τ=1/koff), making the residence time a parameter that is easily measured by routine in vitro assay methods.
assay_metric: pKd
Remember, pKd is on a log scale: it is -log10 of the molar concentration.

Observe how each entry below is paired with its result.
{"molecule": "COc1cnc(N2CC=C(c3cc(NC(=O)c4c[nH]c(=O)cc4C(F)(F)F)c(N4C[C@@H](C)N(C)[C@@H](C)C4)cc3F)CC2)nc1 [Example 366]", "pKd": 8.75}
{"molecule": "CC1CN(c2cc(F)c(-c3ccc(N4CCN(C)CC4)nc3)cc2NC(=O)c2cn(C)c(=O)cc2C(F)(F)F)CCN1C (stereo in doubt) [Example 301]", "pKd": 8.28}
{"molecule": "CC(=O)N1CC=C(c2cc(NC(=O)c3c[nH]c(=O)cc3C(F)(F)F)c(N3C[C@@H](C)N(C)[C@@H](C)C3)cc2F)CC1 [Example 252]", "pKd": 8.55}
{"molecule": "C[C@@H]1CN(c2cc(F)c(-c3ccc(N4CCOCC4)cc3)cc2NC(=O)c2cc(Cl)cc(Cl)c2)C[C@H](C)N1C [Example 191]", "pKd": 7.67}
{"molecule": "C[C@@H]1CN(c2cc(F)c(C3=CCN(C4CCCC4)CC3)cc2NC(=O)c2c[nH]c(=O)cc2C(F)(F)F)C[C@H](C)N1C [Example 231]", "pKd": 8.60}

Form entry - test system: WDR5 (Homo sapiens (Human)); read-out: pKd; molecule: C[C@@H]1CN(c2cc(F)c(-c3ccccc3)cc2NC(=O)c2c[nH]c(=O)cc2C(F)(F)F)C[C@H](C)N1C [Example 146]
8.22

Quick one: C[C@@H]1CN(c2cc(F)c(C3=CC4CCC(C3)N4c3ncccn3)cc2NC(=O)c2c[nH]c(=O)cc2C(F)(F)F)C[C@H](C)N1C (some centres unmarked) [Example 336]
7.90
